Kindly supply the reported pKd values for the records listed here.
- Target Of Assay: FGFR3-IIIb (human)
- Sequence (chain, as listed by the source limits assumed): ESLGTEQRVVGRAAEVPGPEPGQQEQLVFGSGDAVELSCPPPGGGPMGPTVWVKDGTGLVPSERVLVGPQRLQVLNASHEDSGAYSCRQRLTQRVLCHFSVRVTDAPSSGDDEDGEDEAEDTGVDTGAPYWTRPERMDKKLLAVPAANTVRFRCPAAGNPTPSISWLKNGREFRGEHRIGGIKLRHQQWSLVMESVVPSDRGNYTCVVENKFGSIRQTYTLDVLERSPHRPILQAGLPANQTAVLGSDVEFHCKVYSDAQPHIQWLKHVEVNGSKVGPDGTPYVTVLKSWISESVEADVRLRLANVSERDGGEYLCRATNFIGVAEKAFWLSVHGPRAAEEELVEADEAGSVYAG
- Procedure Summary: SPR (Biacore T100), IgG captured by anti-human Fc, FGFR flowed
Reminder that pKd is minus the log10 of a molar concentration.

Field request: pKd | item: 2B.1.3.10 (antibody, human IgG1, kappa, V domains shown) VH: EVQLVESGGGLVQPGGSLRLSCAASGFPFTSQGISWVRQAPGKGLEWVGRTHLGDGSTNYADSVKGRFTISADTSKNTAYLQMNSLRAEDTAVYYCARTYGIYDTYDKYTEYVMDYWGQGTLVTVSS VL: DIQMTQSPSSLSASVGDRVTITCRASQDVDTSLAWYKQKPGKAPKLLIYSASFLYSGVPSRFSGSGSGTDFTLTISSLQPEDFATYYCQQSTGHPQTFGQGTKVEIKR 9.96

Can you look up the measured pKd of 2B.1.88 (antibody, human IgG1, kappa, V domains shown) VH: EVQLVESGGGLVQPGGSLRLSCAASGFTFTSTGISWVRQAPGKGLEWVGRIWMFTGSTNYADSVKGRFTISADTSKNTAYLQMNSLRAEDTAVYYCARTYGIYDLYVDYTEYVMDYWGQGTLVTVSS VL: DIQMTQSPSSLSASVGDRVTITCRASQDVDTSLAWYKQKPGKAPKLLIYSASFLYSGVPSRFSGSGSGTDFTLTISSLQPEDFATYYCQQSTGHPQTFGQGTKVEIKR for me? 10.30

Can you share its pKd? I mean this binder: 2B.1.95 (antibody, human IgG1, kappa, V domains shown) VH: EVQLVESGGGLVQPGGSLRLSCAASGFTFTSTGISWVRQAPGKGLEWVGRLIFFTGSTNYADSVKGRFTISADTSKNTAYLQMNSLRAEDTAVYYCARTYGIYDLYVDYTEYVMDYWGQGTLVTVSS VL: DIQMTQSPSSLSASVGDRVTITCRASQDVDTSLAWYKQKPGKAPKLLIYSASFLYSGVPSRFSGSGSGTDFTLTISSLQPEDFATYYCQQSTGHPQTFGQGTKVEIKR 9.72

Returns the measured pKd for the input binder. Input: 2B.1.32 (antibody, human IgG1, kappa, V domains shown) VH: EVQLVESGGGLVQPGGSLRLSCAASGFTFTSTGISWVRQAPGKGLEWVGRWVGFTGSTNYADSVKGRFTISADTSKNTAYLQMNSLRAEDTAVYYCARTYGIYDLYVDYTEYVMDYWGQGTLVTVSS VL: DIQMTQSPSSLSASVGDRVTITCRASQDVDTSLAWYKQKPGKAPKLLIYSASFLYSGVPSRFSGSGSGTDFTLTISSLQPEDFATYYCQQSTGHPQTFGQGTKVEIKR 10.22
